Target: T1, human VPAC2 receptor (human, UniProt P41587 24-438)
T1 sequence (looked up): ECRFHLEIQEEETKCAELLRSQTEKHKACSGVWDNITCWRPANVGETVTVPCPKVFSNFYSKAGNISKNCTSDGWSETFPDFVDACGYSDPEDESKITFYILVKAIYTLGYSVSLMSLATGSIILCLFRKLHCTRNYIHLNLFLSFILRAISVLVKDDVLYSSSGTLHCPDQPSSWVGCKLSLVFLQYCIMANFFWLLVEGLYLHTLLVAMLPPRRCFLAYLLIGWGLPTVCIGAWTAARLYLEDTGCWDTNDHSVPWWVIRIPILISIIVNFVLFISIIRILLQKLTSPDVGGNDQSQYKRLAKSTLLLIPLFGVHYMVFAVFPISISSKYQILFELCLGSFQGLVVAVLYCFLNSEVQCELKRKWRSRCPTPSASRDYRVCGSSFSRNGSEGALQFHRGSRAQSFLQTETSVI
Assay: cell-based or functional assay
readout: Human VPAC2 Receptor: Alphascreen (EC50; nM)
Supply the numeric figure in nM, leaving out any unit text.

Notebook: HSDAVFTEQYTXLRXQVAAXXYLQSIXXXGGPSSGAPPPC (C6-HSDAVFTEQY(OMe)TOrnLRAibQVAAAibOrnYLQSIOrnK(CO(CH2)2SPEG20K)OrnGGPSSGAPPPC(PEG20K)-NH2) [P499] , Human VPAC2 Receptor: Alphascreen (EC50; nM) read as 57.7

Notebook: HSDAVFTEQYTXLRXQVAAXXYLQXIXXGGPSSGAPPPC (C6-HSDAVFTEQY(OMe)TOrnLRAibQVAAAibOrnYLQK(CO(CH2)2SPEG20K)IOrnOrnGGPSSGAPPPC(PEG20K)-NH2) [P495] , Human VPAC2 Receptor: Alphascreen (EC50; nM) read as 117

Notebook: HSDAVFTEQYTXLRXQLAXXXYLQSIXXXGGPSSGAPPPC (C6-HSDAVFTEQY(OMe)TOrnLRAibQLAAbuAibOrnYLQSIOrnK(CO(CH2)2SPEG20K)OrnGGPSSGAPPPC(PEG20K)-NH2) [P551] , Human VPAC2 Receptor: Alphascreen (EC50; nM) read as 15.6

Notebook: HSDAVFTEQYTXLRXQLAXXXYLQXIXCXGGPSSGAPPPS (C6-HSDAVFTEQY(OMe)TOrnLRAibQLAAbuAibOrnYLQAibIOrnC(PEG40K)OrnGGPSSGAPPPS-NH2) [P537] , Human VPAC2 Receptor: Alphascreen (EC50; nM) read as 32

Notebook: HSDAVFTEQYTXLRXQLAXXXYXQSIXXGGPSSGAPPPCC (C6-HSDAVFTEQY(OMe)TOrnLRAibQLAAbuAibOrnYAibQSIOrnOrnGGPSSGAPPPC(PEG30K)C(PEG30K)-NH2) [P602] , Human VPAC2 Receptor: Alphascreen (EC50; nM) read as 42.1
